Assay read-out Ki; system under study: Aurora-2 (Homo sapiens, UniProt O14965).
Sequence (O14965 whole entry): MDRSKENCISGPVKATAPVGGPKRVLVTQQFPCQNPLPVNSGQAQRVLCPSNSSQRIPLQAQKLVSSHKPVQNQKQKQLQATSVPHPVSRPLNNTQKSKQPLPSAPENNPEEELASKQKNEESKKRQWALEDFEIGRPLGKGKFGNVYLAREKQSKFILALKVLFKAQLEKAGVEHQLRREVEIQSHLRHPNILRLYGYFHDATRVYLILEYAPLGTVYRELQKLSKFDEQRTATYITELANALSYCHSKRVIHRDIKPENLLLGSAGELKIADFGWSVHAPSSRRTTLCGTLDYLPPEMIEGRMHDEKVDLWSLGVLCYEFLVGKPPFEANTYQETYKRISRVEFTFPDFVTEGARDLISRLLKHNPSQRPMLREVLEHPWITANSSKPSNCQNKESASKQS

Guide cases for Ki, answers given:
# smiles_code, Ki
data = [
    ("Cc1cc(Nc2nc(-c3ccc(F)c(Cl)c3)nc3ccccc23)[nH]n1", "< 0.1 µM"),
    ("Cc1ccccc1-c1nc(Nc2n[nH]c3ccccc23)c2ccccc2n1", "1 to 20 µM"),
]

Input: State the recorded Ki for this entry: Cc1cccc(-c2nc(Nc3cc(C)n[nH]3)c3ccccc3n2)c1
Output: < 0.1 µM

Input: State the recorded Ki for this entry: Oc1cc(Nc2nc(-c3ccccc3C(F)(F)F)nc3ccccc23)n[nH]1
Output: 1 to 20 µM

Input: State the recorded Ki for this entry: FC(F)(F)c1ccccc1-c1nc(Nc2n[nH]c3ccccc23)c2ccccc2n1
Output: 1 to 20 µM

Input: State the recorded Ki for this entry: Cc1cc(Nc2nc(-c3ccncc3)nc3ccccc23)n[nH]1
Output: < 0.1 µM

Input: State the recorded Ki for this entry: FC(F)(F)c1ccccc1-c1nc(Nc2n[nH]c3cc(Cl)ccc23)c2ccccc2n1
Output: 1 to 20 µM

Input: State the recorded Ki for this entry: C=CCNC(=O)c1cc(Nc2nc(-c3ccccc3)nc3ccccc23)[nH]n1
Output: 1 to 20 µM

Input: State the recorded Ki for this entry: C#Cc1cccc(-c2nc(Nc3cc(C)n[nH]3)c3ccccc3n2)c1
Output: < 0.1 µM

Input: State the recorded Ki for this entry: FC(F)(F)c1ccccc1-c1nc(Nc2n[nH]c3cc(Br)ccc23)c2ccccc2n1
Output: 1 to 20 µM

Input: State the recorded Ki for this entry: Cc1cc(Nc2nc(-c3cccc(I)c3)nc3ccccc23)[nH]n1
Output: < 0.1 µM

Input: State the recorded Ki for this entry: Cc1cc(Nc2nc(-c3ccc(F)cc3F)nc3ccccc23)n[nH]1
Output: < 0.1 µM

Input: State the recorded Ki for this entry: CC(C)(C)c1cc(Nc2nc(-c3ccccc3)nc3ccccc23)[nH]n1
Output: 1 to 20 µM

The measured values listed here are drawn from patent US6610677B2.
